Target Or Test System: PI3Kδ (Homo sapiens, UniProt O00329)
Sequence (O00329 whole entry, canonical isoform): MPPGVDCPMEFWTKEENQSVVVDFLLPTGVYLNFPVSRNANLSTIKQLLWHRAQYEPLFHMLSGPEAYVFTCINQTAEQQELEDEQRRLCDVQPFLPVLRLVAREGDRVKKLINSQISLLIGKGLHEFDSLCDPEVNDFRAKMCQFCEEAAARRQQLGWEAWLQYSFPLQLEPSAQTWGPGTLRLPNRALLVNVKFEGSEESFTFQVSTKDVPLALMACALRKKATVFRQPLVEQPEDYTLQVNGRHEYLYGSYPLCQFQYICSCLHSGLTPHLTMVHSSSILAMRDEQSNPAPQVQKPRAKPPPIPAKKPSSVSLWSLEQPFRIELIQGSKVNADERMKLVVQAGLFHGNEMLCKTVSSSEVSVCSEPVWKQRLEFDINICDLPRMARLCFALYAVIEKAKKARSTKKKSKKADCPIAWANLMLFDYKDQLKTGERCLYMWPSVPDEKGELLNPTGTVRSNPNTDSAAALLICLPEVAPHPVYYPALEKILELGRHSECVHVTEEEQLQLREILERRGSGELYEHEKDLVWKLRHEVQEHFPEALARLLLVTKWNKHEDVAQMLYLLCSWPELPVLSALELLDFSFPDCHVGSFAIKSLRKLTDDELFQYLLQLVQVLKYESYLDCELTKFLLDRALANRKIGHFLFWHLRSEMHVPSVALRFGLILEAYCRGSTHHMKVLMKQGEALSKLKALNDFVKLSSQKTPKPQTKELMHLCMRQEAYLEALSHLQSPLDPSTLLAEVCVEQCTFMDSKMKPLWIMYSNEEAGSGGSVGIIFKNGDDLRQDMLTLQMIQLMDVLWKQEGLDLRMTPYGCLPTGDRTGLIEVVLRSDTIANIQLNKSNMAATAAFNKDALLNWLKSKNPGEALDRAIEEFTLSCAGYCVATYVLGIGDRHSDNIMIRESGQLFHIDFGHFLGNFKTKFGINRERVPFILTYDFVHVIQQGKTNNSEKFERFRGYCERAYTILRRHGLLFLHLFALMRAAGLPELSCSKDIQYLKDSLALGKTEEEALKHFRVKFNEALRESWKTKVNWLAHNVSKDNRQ
Sequence (P27986 whole entry partner, canonical isoform): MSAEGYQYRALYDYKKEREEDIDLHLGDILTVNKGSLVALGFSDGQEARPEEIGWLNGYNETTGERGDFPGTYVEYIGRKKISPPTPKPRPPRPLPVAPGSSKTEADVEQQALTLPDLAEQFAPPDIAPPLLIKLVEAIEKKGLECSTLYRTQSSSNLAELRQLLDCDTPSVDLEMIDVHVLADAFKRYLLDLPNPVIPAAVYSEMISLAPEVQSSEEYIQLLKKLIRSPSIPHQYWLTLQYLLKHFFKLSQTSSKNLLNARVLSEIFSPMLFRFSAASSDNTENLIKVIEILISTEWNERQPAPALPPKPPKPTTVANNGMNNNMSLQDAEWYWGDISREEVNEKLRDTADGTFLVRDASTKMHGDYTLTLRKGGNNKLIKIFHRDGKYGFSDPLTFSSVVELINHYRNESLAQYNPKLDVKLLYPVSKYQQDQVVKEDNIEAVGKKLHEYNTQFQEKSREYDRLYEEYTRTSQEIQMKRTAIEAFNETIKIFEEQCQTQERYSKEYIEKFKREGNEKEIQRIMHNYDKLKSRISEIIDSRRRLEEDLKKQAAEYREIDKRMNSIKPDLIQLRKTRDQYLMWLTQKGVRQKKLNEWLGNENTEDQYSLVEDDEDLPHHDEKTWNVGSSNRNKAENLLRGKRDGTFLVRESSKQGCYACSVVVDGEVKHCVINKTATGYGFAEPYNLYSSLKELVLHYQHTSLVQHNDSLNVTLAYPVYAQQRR
Assay Overview: in vitro PI3Kδ inhibition assay (isoform selectivity)
Experimental Setup: Table 4
Metric Name: IC50 (nM)
Express it in nM; write the number only.

For the compound shown here, N#Cc1c(-c2cnc(N)nc2C(F)(F)F)nc(N2CCOCC2)nc1N1CCOCC1 [Compound 17p] , give the reported IC50.
15.4

For the compound shown here, CNc1ncc(-c2nc(N3CCOCC3)nc(N3CCOCC3)c2C#N)cn1 [Compound 17o] , give the reported IC50.
204

For the compound shown here, N#Cc1c(-c2cccc(O)c2)nc(N2CCOCC2)nc1N1CCOCC1 [Compound 17e] , give the reported IC50.
55.6

====

Consider the following compounds; for each one, report its pIC50.
Target Or Test System: PI3Kα (Homo sapiens)
Assay Overview: in vitro PI3Kα kinase inhibition assay
Format: biochemical
Experimental Setup: Figure 5 activity bins; read-out: weak activity IC50 in SAR figure (PI3Kα)
pIC50: −log10 of the molar value.

For the compound shown here, COc1cccc(-c2nc(N3CCOCC3)nc(N3CCOCC3)c2C#N)c1 [Compound 17g] , give the reported pIC50.
< 6.00

For the compound shown here, N#Cc1c(-c2ccncc2)nc(N2CCOCC2)nc1N1CCOCC1 [Compound 17j] , give the reported pIC50.
< 6.00

====

Target Or Test System: UniProt:P42336
Assay Overview: in vitro PI3Kα kinase inhibition assay
Assay type: biochemical
Experimental Setup: mean of three independent experiments; read-out: IC50 against PI3Kα
Consider the following compounds; for each one, report its pIC50.
Field pIC50 (float): negative decimal logarithm of the concentration in molar.

For the compound shown here, Cc1cc(N)ncc1-c1nc(N2CCOCC2)nc(N2CCOCC2)c1C#N [Compound 17l] , give the reported pIC50.
6.35

For the compound shown here, COc1ccc(-c2cc(N3CCOCC3)nc(N3CCOCC3)n2)cn1 [Compound 12d] , give the reported pIC50.
6.00

For the compound shown here, Cc1nn(C)cc1-c1nc(N2CCOCC2)nc(N2CCOCC2)c1C#N [Compound 17c] , give the reported pIC50.
5.87

For the compound shown here, N#Cc1c(-c2cccnc2)nc(N2CCOCC2)nc1N1CCOCC1 [Compound 17i] , give the reported pIC50.
6.10

For the compound shown here, COc1cccc(-c2nc(N3CCOCC3)nc(N3CCOCC3)c2C#N)c1 [Compound 17g] , give the reported pIC50.
5.49

For the compound shown here, N#Cc1c(-c2cccc3[nH]ncc23)nc(N2CCOCC2)nc1N1CCOCC1 [Compound 17b] , give the reported pIC50.
6.59

For the compound shown here, N#Cc1c(-c2cn[nH]c2)nc(N2CCOCC2)nc1N1CCOCC1 [Compound 17a] , give the reported pIC50.
6.79

For the compound shown here, CNc1ncc(-c2nc(N3CCOCC3)nc(N3CCOCC3)c2C#N)cn1 [Compound 17o] , give the reported pIC50.
7.46

For the compound shown here, N#Cc1c(-c2cccc(O)c2)nc(N2CCOCC2)nc1N1CCOCC1 [Compound 17e] , give the reported pIC50.
7.05

For the compound shown here, N#Cc1c(-c2ccc(N)cc2)nc(N2CCOCC2)nc1N1CCOCC1 [Compound 17h] , give the reported pIC50.
6.32

For the compound shown here, N#Cc1c(-c2ccc(N)nc2)nc(N2CCOCC2)nc1N1CCOCC1 [Compound 17k] , give the reported pIC50.
6.80

For the compound shown here, CCOC(=O)C1CCN(c2nc(-c3cnc(N)cc3C(F)(F)F)cc(N3CCOCC3)n2)CC1 [Compound 12b] , give the reported pIC50.
6.16

For the compound shown here, N#Cc1c(-c2cncnc2)nc(N2CCOCC2)nc1N1CCOCC1 [Compound 17n] , give the reported pIC50.
6.22

====

Target Or Test System: PI3Kα (Homo sapiens, UniProt P42336)
Sequence (P42336 whole entry): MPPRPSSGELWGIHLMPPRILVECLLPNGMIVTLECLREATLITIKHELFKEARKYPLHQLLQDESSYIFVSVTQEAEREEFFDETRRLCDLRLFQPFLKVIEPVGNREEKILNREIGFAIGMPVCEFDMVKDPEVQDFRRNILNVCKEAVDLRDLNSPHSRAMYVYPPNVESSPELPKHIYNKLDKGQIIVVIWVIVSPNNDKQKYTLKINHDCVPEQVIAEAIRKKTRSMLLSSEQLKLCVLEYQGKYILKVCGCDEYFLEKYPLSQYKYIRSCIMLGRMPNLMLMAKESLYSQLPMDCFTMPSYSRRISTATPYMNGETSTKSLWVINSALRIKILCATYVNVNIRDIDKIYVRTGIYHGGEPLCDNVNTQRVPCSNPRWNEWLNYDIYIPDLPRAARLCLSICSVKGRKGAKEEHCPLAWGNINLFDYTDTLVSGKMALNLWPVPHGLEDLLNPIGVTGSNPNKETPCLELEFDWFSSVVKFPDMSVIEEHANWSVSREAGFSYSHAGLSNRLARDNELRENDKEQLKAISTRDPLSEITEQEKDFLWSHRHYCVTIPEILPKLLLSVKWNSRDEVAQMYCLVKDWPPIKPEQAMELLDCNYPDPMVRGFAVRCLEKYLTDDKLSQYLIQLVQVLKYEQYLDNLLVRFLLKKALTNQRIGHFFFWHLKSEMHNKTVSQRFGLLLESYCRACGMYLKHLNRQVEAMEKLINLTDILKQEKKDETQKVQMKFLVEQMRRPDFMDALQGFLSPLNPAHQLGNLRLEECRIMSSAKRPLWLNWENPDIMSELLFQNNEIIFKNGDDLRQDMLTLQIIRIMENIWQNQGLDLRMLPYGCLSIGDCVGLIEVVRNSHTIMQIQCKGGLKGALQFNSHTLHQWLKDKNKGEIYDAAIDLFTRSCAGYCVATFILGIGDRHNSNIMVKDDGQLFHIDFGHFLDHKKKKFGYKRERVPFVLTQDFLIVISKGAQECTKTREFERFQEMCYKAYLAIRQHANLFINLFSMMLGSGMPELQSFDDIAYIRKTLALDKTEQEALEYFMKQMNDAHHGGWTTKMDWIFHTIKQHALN
Sequence (P27986 whole entry partner): as the sequence (P27986 whole entry partner, canonical isoform) above
Assay Overview: in vitro PI3Kα kinase inhibition assay
Format: biochemical
Experimental Setup: Figure 5 activity bins; read-out: IC50 range in SAR figure (PI3Kα)
Consider the following molecules; for each one, report its IC50.

For the molecule shown here, N#Cc1c(-c2cccc(O)c2)nc(N2CCOCC2)nc1N1CCOCC1 [Compound 17e] , give the reported IC50.
30 to 300 nM

For the molecule shown here, N#Cc1c(-c2cccnc2)nc(N2CCOCC2)nc1N1CCOCC1 [Compound 17i] , give the reported IC50.
400 to 800 nM

For the molecule shown here, N#Cc1c(-c2cn[nH]c2)nc(N2CCOCC2)nc1N1CCOCC1 [Compound 17a] , give the reported IC50.
30 to 300 nM

====

Target Or Test System: PI3Kα (Homo sapiens, UniProt P42336)
Assay Overview: in vitro PI3Kα kinase inhibition assay
Type: biochemical
Experimental Setup: mean of three independent experiments; read-out: IC50 against PI3Kα
pIC50: −log10 of the molar value.
Metric Name: pIC50

For the compound shown here, N#Cc1c(-c2cnn(C3CCNCC3)c2)nc(N2CCOCC2)nc1N1CCOCC1 [Compound 17d] , give the reported pIC50.
< 5.00

For the compound shown here, c1nn(C2CCNCC2)cc1-c1cc(N2CCOCC2)nc(N2CCOCC2)n1 [Compound 12c] , give the reported pIC50.
< 5.00

For the compound shown here, c1nn(C2CCNCC2)cc1-c1nc(N2CCOCC2)nc(N2CCOCC2)n1 [Compound 12e] , give the reported pIC50.
< 5.00
